Test system: UMC-11
Test: relative viability (nuclei count vs DMSO), 5 days (fraction); higher = more cells survive
Settings: first compound 0.04 µM
relative viability strictly less than 0.7 = t. Otherwise f.

COMPOUND | CLASSIFICATION
O=C(O)c1ccc(-c2c[nH]c3ncc(-c4ccccc4)cc23)cc1C1CCCC1 + CS(=O)(=O)CCNCc1ccc(-c2ccc3ncnc(Nc4ccc(OCc5cccc(F)c5)c(Cl)c4)c3c2)o1 [Lapatinib] (partner 2 µM) | f

Ask: Find out if reported relative viability for O=C(O)c1ccc(-c2c[nH]c3ncc(-c4ccccc4)cc23)cc1C1CCCC1 + C[C@]1(O)C[C@@H](c2nc(-c3ccc4ccc(-c5ccccc5)nc4c3)c3c(N)nccn32)C1 [Linsitinib] (partner 1 µM) is less than 0.7
Result: f

Ask: Find out if reported relative viability for O=C(O)c1ccc(-c2c[nH]c3ncc(-c4ccccc4)cc23)cc1C1CCCC1 + O=C(c1cc(Cc2n[nH]c(=O)c3ccccc23)ccc1F)N1CCN(C(=O)C2CC2)CC1 [Olaparib] (partner 8 µM) is less than 0.7
Result: t

Ask: Find out if reported relative viability for O=C(O)c1ccc(-c2c[nH]c3ncc(-c4ccccc4)cc23)cc1C1CCCC1 + Cc1cc(Nc2cc(N3CCN(C)CC3)nc(Sc3ccc(NC(=O)C4CC4)cc3)n2)n[nH]1 [Tozasertib] (partner 0.1 µM) is less than 0.7
Result: t

Ask: Find out if reported relative viability for O=C(O)c1ccc(-c2c[nH]c3ncc(-c4ccccc4)cc23)cc1C1CCCC1 + CC(C)C[C@H](NC(=O)[C@H](Cc1ccccc1)NC(=O)c1cnccn1)B(O)O [Bortezomib] (partner 0.002 µM) is less than 0.7
Result: f

----------
Test system: NCI-H650
Test: relative viability (nuclei count vs DMSO), 5 days (fraction); higher = more cells survive
Details: first compound 0.253 µM
Each entry below carries its recorded relative viability.
Write the value as a bare number.

// solved cases for relative viability follow
COMPOUND | READOUT_TYPE | NUMERIC_RESULT
C=C1C(=O)O[C@@H](CCCCCCCC)[C@@H]1C(=O)O [C-75] + Cc1cc(Nc2cc(N3CCN(C)CC3)nc(Sc3ccc(NC(=O)C4CC4)cc3)n2)n[nH]1 [Tozasertib] (partner 0.1 µM) | relative viability | 0.651
Oc1nc(-c2ccc(C(F)(F)F)cc2)nc2c1CSCC2 [XAV939] + Nc1nc2[nH]cc(CCc3ccc(C(=O)N[C@@H](CCC(=O)O)C(=O)O)cc3)c2c(=O)[nH]1 [Pemetrexed] (partner 0.2 µM) | relative viability | 1
Oc1nc(-c2ccc(C(F)(F)F)cc2)nc2c1CSCC2 [XAV939] + Cc1cc(Nc2cc(N3CCN(C)CC3)nc(Sc3ccc(NC(=O)C4CC4)cc3)n2)n[nH]1 [Tozasertib] (partner 0.1 µM) | relative viability | 0.691
C=C1C(=O)O[C@@H](CCCCCCCC)[C@@H]1C(=O)O [C-75] + O=C(CCCCCCC(=O)Nc1ccccc1)NO [Vorinostat] (partner 1 µM) | relative viability | 0.388

Here is the next item to consider.
Ask: Look up relative viability for this compound: Oc1nc(-c2ccc(C(F)(F)F)cc2)nc2c1CSCC2 [XAV939] + CC(=O)Nc1cccc(-n2c(=O)n(C3CC3)c(=O)c3c(Nc4ccc(I)cc4F)n(C)c(=O)c(C)c32)c1 [Trametinib] (partner 0.02 µM)
Result: 1.05

----------
Tested on: SK-LU-1
Assay: relative viability (nuclei count vs DMSO), 5 days (fraction); higher = more cells survive
Settings: first compound 1.265 µM
Each entry below carries its recorded relative viability.
Write the value as a bare number.

MOLECULE | READOUT_TYPE | NUMERIC_RESULT
O=C(O)c1ccc(-c2c[nH]c3ncc(-c4ccccc4)cc23)cc1C1CCCC1 + Nc1nc2[nH]cc(CCc3ccc(C(=O)N[C@@H](CCC(=O)O)C(=O)O)cc3)c2c(=O)[nH]1 [Pemetrexed] (partner 0.2 µM) | relative viability | 0.548
O=C(O)c1ccc(-c2c[nH]c3ncc(-c4ccccc4)cc23)cc1C1CCCC1 + COc1cccc2cc(-c3nc([C@H]4CC[C@H](C(=O)O)CC4)n4ncnc(N)c34)[nH]c12 [OSI-027] (partner 0.5 µM) | relative viability | 0.274
O=C(O)c1ccc(-c2c[nH]c3ncc(-c4ccccc4)cc23)cc1C1CCCC1 + N=C(N)NC(=N)NCCc1ccccc1 [Phenformin] (partner 250 µM) | relative viability | 0.363
O=C(O)c1ccc(-c2c[nH]c3ncc(-c4ccccc4)cc23)cc1C1CCCC1 + CC(=O)Nc1cccc(-n2c(=O)n(C3CC3)c(=O)c3c(Nc4ccc(I)cc4F)n(C)c(=O)c(C)c32)c1 [Trametinib] (partner 0.02 µM) | relative viability | 0.37
O=C(O)c1ccc(-c2c[nH]c3ncc(-c4ccccc4)cc23)cc1C1CCCC1 + Cc1nc(NC(=O)N2CCC[C@H]2C(N)=O)sc1-c1ccnc(C(C)(C)C(F)(F)F)c1 [Alpelisib] (partner 2 µM) | relative viability | 0.548

Here is the next item to consider.
Ask: Look up relative viability for this molecule: O=C(O)c1ccc(-c2c[nH]c3ncc(-c4ccccc4)cc23)cc1C1CCCC1 + Cc1cc(Nc2cc(N3CCN(C)CC3)nc(Sc3ccc(NC(=O)C4CC4)cc3)n2)n[nH]1 [Tozasertib] (partner 0.1 µM)
Result: 0.292

----------
Tested on: NCI-H2170
Assay: relative viability (nuclei count vs DMSO), 5 days (fraction); higher = more cells survive
Conditions: first compound 2.53 µM
relative viability strictly less than 0.5 = Condition met. Otherwise Condition not met.

Worked examples, 7 compounds total:
COMPOUND | CLASSIFICATION
Oc1nc(-c2ccc(C(F)(F)F)cc2)nc2c1CSCC2 [XAV939] + O=C(CCCCCCC(=O)Nc1ccccc1)NO [Vorinostat] (partner 1 µM) | Condition not met
C=C1C(=O)O[C@@H](CCCCCCCC)[C@@H]1C(=O)O [C-75] + Cc1nc(Nc2ncc(C(=O)Nc3c(C)cccc3Cl)s2)cc(N2CCN(CCO)CC2)n1 [Dasatinib] (partner 0.075 µM) | Condition met
Oc1nc(-c2ccc(C(F)(F)F)cc2)nc2c1CSCC2 [XAV939] + Cc1nc(NC(=O)N2CCC[C@H]2C(N)=O)sc1-c1ccnc(C(C)(C)C(F)(F)F)c1 [Alpelisib] (partner 2 µM) | Condition not met
Oc1nc(-c2ccc(C(F)(F)F)cc2)nc2c1CSCC2 [XAV939] + COc1cc2c(Oc3ccc(NC(=O)C4(C(=O)Nc5ccc(F)cc5)CC4)cc3F)ccnc2cc1OCCCN1CCOCC1 [Foretinib] (partner 0.25 µM) | Condition not met
C=C1C(=O)O[C@@H](CCCCCCCC)[C@@H]1C(=O)O [C-75] + CC1(C)CCC(c2ccc(Cl)cc2)=C(CN2CCN(c3ccc(C(=O)NS(=O)(=O)c4ccc(N[C@H](CCN5CCOCC5)CSc5ccccc5)c(S(=O)(=O)C(F)(F)F)c4)cc3)CC2)C1 [Navitoclax] (partner 0.5 µM) | Condition not met
Oc1nc(-c2ccc(C(F)(F)F)cc2)nc2c1CSCC2 [XAV939] + O=C(c1cc(Cc2n[nH]c(=O)c3ccccc23)ccc1F)N1CCN(C(=O)C2CC2)CC1 [Olaparib] (partner 8 µM) | Condition met
C=C1C(=O)O[C@@H](CCCCCCCC)[C@@H]1C(=O)O [C-75] + O=C(c1cc(Cc2n[nH]c(=O)c3ccccc23)ccc1F)N1CCN(C(=O)C2CC2)CC1 [Olaparib] (partner 8 µM) | Condition not met

Moving on to another compound below.
Ask: Find out if reported relative viability for C=C1C(=O)O[C@@H](CCCCCCCC)[C@@H]1C(=O)O [C-75] + O=C(CCCCCCC(=O)Nc1ccccc1)NO [Vorinostat] (partner 1 µM) is less than 0.5
Result: Condition not met

----------
System: NCI-H1437
Assay: relative viability (nuclei count vs DMSO), 5 days (fraction); higher = more cells survive
Settings: first compound 0.005 µM
Each entry below carries its recorded relative viability.
Write the value as a bare number.

// solved cases for relative viability follow
COMPOUND | READOUT_TYPE | NUMERIC_RESULT
CC1(C)CCC(c2ccc(Cl)cc2)=C(CN2CCN(c3ccc(C(=O)NS(=O)(=O)c4ccc(N[C@H](CCN5CCOCC5)CSc5ccccc5)c(S(=O)(=O)C(F)(F)F)c4)cc3)CC2)C1 [Navitoclax] + Nc1ncn([C@H]2C[C@H](O)[C@@H](CO)O2)c(=O)n1 [Decitabine] (partner 2 µM) | relative viability | 0.549
CC1(C)CCC(c2ccc(Cl)cc2)=C(CN2CCN(c3ccc(C(=O)NS(=O)(=O)c4ccc(N[C@H](CCN5CCOCC5)CSc5ccccc5)c(S(=O)(=O)C(F)(F)F)c4)cc3)CC2)C1 [Navitoclax] + CC(C)C[C@H](NC(=O)[C@H](Cc1ccccc1)NC(=O)c1cnccn1)B(O)O [Bortezomib] (partner 0.002 µM) | relative viability | 0.503

Ask: Param readout = relative viability; param system = NCI-H1437; param query = CC1(C)CCC(c2ccc(Cl)cc2)=C(CN2CCN(c3ccc(C(=O)NS(=O)(=O)c4ccc(N[C@H](CCN5CCOCC5)CSc5ccccc5)c(S(=O)(=O)C(F)(F)F)c4)cc3)CC2)C1 [Navitoclax] + COc1cccc2cc(-c3nc([C@H]4CC[C@H](C(=O)O)CC4)n4ncnc(N)c34)[nH]c12 [OSI-027] (partner 0.5 µM) ; response: value
Result: 0.845
